molecular target: KRasG12C (M1-K169, biotinylated on the N-terminus) (Homo sapiens (Human), UniProt P01116, G12C); test: Covalent competition assay (scintillation proximity assay, competition with radiolabeled covalent probe Compound B); format: binding; conditions: in vitro KRASG12C activity; 10 nM KRasG12C:GDP, 25 nM radio-ligand and 475 nM unlabelled ligand, incubated 2 hours; read-out: Covalent Competition Assay IC50
pIC50: −log10 of the molar value.
Param threshold (7) applies to pIC50; output Condition met when value >= threshold, Condition not met when value < threshold.

Take a look at these entries with their results.
MOLECULE: C=CC(=O)N1CC2(CC(n3nc(-c4cnn(S(=O)(=O)C5CC5)c4)c(-c4c(Cl)c(C)cc5[nH]ncc45)c3C)C2)C1 (single isomer, unassigned) [Example 36b]
LABEL_CLASS: Condition not met

MOLECULE: C=CC(=O)N1CC2(CC(n3nc(-c4ccccc4)c(-c4c(Cl)c(C)cc5[nH]nc(N)c45)c3C)C2)C1 (single isomer, unassigned) [Example 70a]
LABEL_CLASS: Condition met

MOLECULE: C=CC(=O)N1CC2(CC(n3nc(-c4ccc(CO)cc4)c(-c4c(Cl)c(C)cc5[nH]ncc45)c3C)C2)C1 (single isomer, unassigned) [Example 47a]
LABEL_CLASS: Condition met

MOLECULE: C=CC(=O)N1CC2(CC(n3nc(C4=CCC(F)(F)CC4)c(-c4c(Cl)c(C)cc5[nH]ncc45)c3C)C2)C1 (single isomer, unassigned)
LABEL_CLASS: Condition not met

MOLECULE: C=CC(=O)N1CC2(CC(n3nc(-c4ccc5c(c4)N(C)CCO5)c(-c4c(Cl)c(C)cc5[nH]ncc45)c3C)C2)C1 (single isomer, unassigned) [Example 31a]
LABEL_CLASS: Condition not met

Query: Decide: is the reported value of pIC50 for C=CC(=O)N1CC2(CC(n3nc(-c4ccc5c(c4)CN(C)C(=O)C5)c(-c4c(Cl)c(C)cc5[nH]ncc45)c3C)C2)C1 (single isomer, unassigned) [Example 21a] equal to or greater than 7?
Result: Condition met

Query: Here is the next molecule: C=CC(=O)N1CC2(CC(n3nc(-c4ccc(C(=O)NCCOC)cc4)c(-c4c(Cl)c(C)cc5[nH]ncc45)c3C)C2)C1 (single isomer, unassigned) [Example 62a]
Result: Condition met

Query: Here is the next molecule: C=CC(=O)N1CC2(CC(n3nc(-c4ccc(C(=O)NCCN(C)C)cc4)c(-c4c(Cl)c(C)cc5[nH]ncc45)c3C)C2)C1 (single isomer, unassigned) [Example 65a]
Result: Condition met

Query: Here is the next molecule: C=CC(=O)N1CC2(CC(n3nc(-c4ccc5c(c4)CCN5C(C)=O)c(-c4c(Cl)c(C)cc5[nH]ncc45)c3C)C2)C1 (single isomer, unassigned) [Example 22a]
Result: Condition met
